- assayInfo: Volume of distribution at steady state in Sprague-Dawley rat at 1 mg/kg, iv and 3 mg/kg, po
- Type: ADME, organism-based
- protocolConditions: in vivo, read-out: Vdss
Lab note: compare Vd against 0.6 L/kg. Equal or greater, write Satisfied. Smaller, write Not satisfied.

Solved entries:
compound: CN(C)C[C@@]1(C(N)=O)CCCN1C(=O)Nc1nc2c(s1)-c1nc(C(C)(C)C)ncc1CC2
assignedLabel: Satisfied
--
compound: CC(C)(C)c1nc2c(s1)CCc1nc(NC(=O)N3CCC[C@H]3C(N)=O)sc1-2
assignedLabel: Not satisfied
--
compound: Cc1nc(NC(=O)N2CCC[C@H]2C(N)=O)sc1-c1csc(C(C)(C)C)n1
assignedLabel: Satisfied
--
compound: CN(C)C[C@@H]1CCN(C(=O)Nc2nc3c(s2)-c2nc(C(C)(C)C)sc2CC3)[C@@H]1C(N)=O
assignedLabel: Satisfied
--
compound: Cc1nc(NC(=O)N2CCC[C@H]2C(N)=O)sc1-c1ccnc(C(C)(C)C)n1
assignedLabel: Satisfied

Problem: hey, is Vd for this one >= 0.6 L/kg? `C[C@@H]1CCN(C(=O)Nc2nc3c(s2)-c2nc(C(C)(C)C)ncc2CC3)[C@@H]1C(N)=O`
Solution: Not satisfied
